- measuredTarget: Stb5 (UniProt P38699)
- Sequence: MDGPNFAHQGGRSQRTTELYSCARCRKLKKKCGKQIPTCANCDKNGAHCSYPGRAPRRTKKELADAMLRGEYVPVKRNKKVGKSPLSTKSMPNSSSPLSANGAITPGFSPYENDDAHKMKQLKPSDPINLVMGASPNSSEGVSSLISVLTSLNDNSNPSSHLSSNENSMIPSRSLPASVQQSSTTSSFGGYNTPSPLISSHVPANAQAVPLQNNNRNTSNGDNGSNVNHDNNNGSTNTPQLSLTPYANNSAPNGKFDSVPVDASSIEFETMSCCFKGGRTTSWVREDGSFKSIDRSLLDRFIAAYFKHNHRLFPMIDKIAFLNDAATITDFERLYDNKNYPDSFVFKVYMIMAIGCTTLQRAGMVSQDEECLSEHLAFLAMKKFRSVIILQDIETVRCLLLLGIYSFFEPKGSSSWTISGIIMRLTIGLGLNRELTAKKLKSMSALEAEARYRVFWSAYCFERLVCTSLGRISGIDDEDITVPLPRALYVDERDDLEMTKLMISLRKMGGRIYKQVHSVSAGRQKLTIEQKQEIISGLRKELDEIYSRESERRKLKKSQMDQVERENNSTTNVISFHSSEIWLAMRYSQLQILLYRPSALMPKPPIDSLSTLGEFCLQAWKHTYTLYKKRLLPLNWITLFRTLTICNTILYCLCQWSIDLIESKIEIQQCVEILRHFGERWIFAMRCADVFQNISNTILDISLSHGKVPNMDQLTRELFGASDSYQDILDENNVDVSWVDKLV
- runDescription: PBM E-score (8-mer binding enrichment) (E-score (-0.5 to 0.5)); higher = stronger / more preferred TF binding
- assaySetup: protein concentration: 200 nM; construct: GST-full length
Over roughly 33,000 sequences, “E-score (-0.5 to 0.5)” has its median near -0.054; the highest 2% begin near 0.35. This is one part of a sample in which the highest values are shown more often than they occur.
Using PBM E-score as the sorting value, the categories are low range: < -0.03; mid range: ≥ -0.03 and < 0.3; high range: ≥ 0.3

Look over these answered cases.
residues: ACTCGGTA
classification: mid range
--
residues: ATTATCCG
classification: high range
--
residues: ACCGGGCA
classification: mid range
--
residues: CGGTGTCC
classification: high range
--
residues: AAAACCCC
classification: high range

Prompt: Place this sequence in its band: ACGGGCAG
Response: low range

Prompt: Form: Item = AGATCCAT ; Class = ?
Response: mid range

Prompt: Category lookup for the sequence GGAAAGCA
Response: mid range

Prompt: State the class of the sequence shown: ACTCGGGG
Response: mid range

Prompt: // bin(item) where item = CTGTGGCA
Response: low range

Prompt: Hi there! Could you help me figure out the category for ATAACGCG please?
Response: mid range

Prompt: Form: Item = CGGTGTTC ; Class = ?
Response: high range

Prompt: Categorize the following entry: AGGTGTTG
Response: low range

Prompt: Determine which band this sequence sits in: CAGGCCGA
Response: mid range

---

- measuredTarget: Stb5 (UniProt P38699)
- Sequence: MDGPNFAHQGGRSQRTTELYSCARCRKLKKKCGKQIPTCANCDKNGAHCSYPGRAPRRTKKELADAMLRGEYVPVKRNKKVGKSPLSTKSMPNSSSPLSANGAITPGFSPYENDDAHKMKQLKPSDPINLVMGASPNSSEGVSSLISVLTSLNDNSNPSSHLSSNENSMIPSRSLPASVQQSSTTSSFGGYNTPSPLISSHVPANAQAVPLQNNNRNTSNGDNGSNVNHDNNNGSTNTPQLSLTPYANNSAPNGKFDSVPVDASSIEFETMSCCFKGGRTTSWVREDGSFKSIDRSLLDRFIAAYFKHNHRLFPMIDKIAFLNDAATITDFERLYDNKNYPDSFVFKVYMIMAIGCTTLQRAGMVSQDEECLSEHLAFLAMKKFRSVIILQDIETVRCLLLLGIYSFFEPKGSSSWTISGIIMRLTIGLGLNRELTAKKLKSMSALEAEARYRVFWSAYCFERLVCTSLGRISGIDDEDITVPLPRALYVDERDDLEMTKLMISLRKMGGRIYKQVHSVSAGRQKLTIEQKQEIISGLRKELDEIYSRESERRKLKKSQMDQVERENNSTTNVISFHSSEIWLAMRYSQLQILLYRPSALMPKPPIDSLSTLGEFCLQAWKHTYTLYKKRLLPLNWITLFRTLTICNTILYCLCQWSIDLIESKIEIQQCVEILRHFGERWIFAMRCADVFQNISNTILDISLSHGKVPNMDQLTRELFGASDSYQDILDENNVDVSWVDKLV
- runDescription: PBM E-score (8-mer binding enrichment) (E-score (-0.5 to 0.5)); higher = stronger / more preferred TF binding
- assaySetup: protein concentration: 200 nM; construct: GST-full length
Whole data set: some 33,000 sequences, median “E-score (-0.5 to 0.5)” near -0.054, cut for the highest 2% near 0.35. Many of the other results were omitted from the sample, so the highest values are more common in it than they were.
Use fulfilled when the recorded PBM E-score is no lower than 0.2; use not fulfilled when it is lower.

Examples from the recorded data:
residues: ATCGCCGC
classification: fulfilled
//
residues: AGACCGCG
classification: fulfilled
//
residues: ACGGTTCG
classification: not fulfilled
//
residues: GGTGTTTA
classification: fulfilled
//
residues: CTGTCCGC
classification: not fulfilled
//
residues: GGACGGGA
classification: not fulfilled

Prompt: Is reported PBM E-score greater than or equal to 0.2 here: AATGCCGT
Response: fulfilled

Prompt: Reported PBM E-score at or above 0.2? ATAGCCGA
Response: fulfilled

Prompt: Could you verify whether the entry AATGCCCT shows PBM E-score of no less than 0.2?
Response: not fulfilled

Prompt: Entry GTCCGACA : is its PBM E-score no less than 0.2?
Response: fulfilled

Prompt: Threshold query (PBM E-score >= 0.2) on AGGGGCGC
Response: not fulfilled

Prompt: Quick check: does ATGTCCGG have PBM E-score greater than or equal to 0.2?
Response: fulfilled

Prompt: Dear colleague, could you confirm whether ATCGCCAG has PBM E-score at or above 0.2?
Response: not fulfilled

---

- measuredTarget: Stb5 (UniProt P38699)
- Sequence: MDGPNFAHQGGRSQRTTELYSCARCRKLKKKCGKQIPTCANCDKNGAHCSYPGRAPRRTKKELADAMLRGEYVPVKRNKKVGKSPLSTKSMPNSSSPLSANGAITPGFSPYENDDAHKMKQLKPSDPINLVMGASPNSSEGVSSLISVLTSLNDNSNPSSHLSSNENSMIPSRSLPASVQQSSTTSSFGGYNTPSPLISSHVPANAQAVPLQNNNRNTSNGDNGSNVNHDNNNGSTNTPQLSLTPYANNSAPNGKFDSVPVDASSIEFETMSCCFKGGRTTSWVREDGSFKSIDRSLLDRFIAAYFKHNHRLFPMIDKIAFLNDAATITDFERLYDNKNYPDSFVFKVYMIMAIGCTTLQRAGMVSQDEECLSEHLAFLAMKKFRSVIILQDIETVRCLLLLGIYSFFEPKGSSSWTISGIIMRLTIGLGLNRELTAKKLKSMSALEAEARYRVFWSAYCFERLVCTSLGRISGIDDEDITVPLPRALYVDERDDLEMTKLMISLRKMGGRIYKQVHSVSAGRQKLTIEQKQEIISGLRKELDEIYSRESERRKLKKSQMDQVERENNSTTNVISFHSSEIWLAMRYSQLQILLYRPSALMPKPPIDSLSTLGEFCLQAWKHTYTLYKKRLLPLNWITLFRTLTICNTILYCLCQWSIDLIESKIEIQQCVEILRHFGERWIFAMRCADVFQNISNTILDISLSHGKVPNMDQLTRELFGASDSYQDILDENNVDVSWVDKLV
- runDescription: PBM E-score (8-mer binding enrichment) (E-score (-0.5 to 0.5)); higher = stronger / more preferred TF binding
- assaySetup: protein concentration: 200 nM; construct: GST-full length
In all, about 33,000 sequences were measured (“E-score (-0.5 to 0.5)”: median about -0.054, highest 2% from about 0.35 on). The list comes from a sample in which the highest values are over-represented; it also holds close analogues and randomly drawn sequences.
endpoint: PBM E-score
Give the figure only, with no unit attached.

residues: TCACCGAA
endpoint: PBM E-score
obsValue: 0.217

Prompt: Annotate the sequence GGACCGAC with its measured PBM E-score.
Response: 0.318

Prompt: Answer with the recorded PBM E-score of ATGTGGTA only.
Response: -0.222

Prompt: Given CGACGGTA , respond with its PBM E-score.
Response: 0.352

Prompt: Let me know recorded PBM E-score for AGTCGGTG , thanks.
Response: 0.385

Prompt: State its PBM E-score for this sequence: ACTCCGCG
Response: 0.357

Prompt: Report PBM E-score, nothing else, for this sequence: CATCGGGG
Response: 0.313

Prompt: Please report PBM E-score for the following sequence: AGACCGAA
Response: 0.236
